Source: paper PMC3958260

- Tested on: aptamer # 11_76 (DNA, aptamer) ATACCAGCTTATTCAATTATGCGGGGATGAGGCTTGATCTGTGGCTCTGATCCATGATCAGTCGTCTTACGTGCGGTCCAGATAGTAAGTGCAATCT
- Method notes: bead fluorescence release assay
- Test conditions: 100 mM Na+, 5 mM K+, 2 mM Mg2+, 1 mM Ca2+; 20 mM Tris-HCl pH 7.6, 21 °C; 1 mM compound; release from capture oligo iODN2Sp; single concentration
Test readout: amount of eluted aptamer DNA (pmol)

Completed entries (count: 3):
{"Test smiles": "NC[C@H]1O[C@H](O[C@H]2[C@H](O)[C@@H](O[C@H]3O[C@H](CO)[C@@H](O)[C@H](N)[C@H]3O)[C@H](N)C[C@@H]2N)[C@H](O)[C@@H](O)[C@@H]1O", "amount of eluted aptamer DNA [pmol]": 5.02}
{"Test smiles": "NC[C@H]1O[C@H](O[C@H]2[C@H](O)[C@@H](O[C@H]3O[C@H](CO)[C@@H](O)[C@H](N)[C@H]3O)[C@H](N)C[C@@H]2N)[C@H](N)C[C@@H]1O", "amount of eluted aptamer DNA [pmol]": 4.03}
{"Test smiles": "CN[C@@H]1[C@@H](O[C@H]2O[C@H](CO)[C@@H](N)[C@H](O)[C@H]2O)O[C@H]2C[C@@H](N)[C@@H](O[C@H]3[C@H](O)[C@@H](O)[C@H](N)C[C@@H]3N)O[C@@H]2[C@@H]1O", "amount of eluted aptamer DNA [pmol]": 3.04}

1. CCN[C@@H]1C[C@H](N)[C@@H](O[C@H]2OC(CN)=CC[C@H]2N)[C@H](O)[C@H]1O[C@H]1OC[C@](C)(O)[C@H](NC)[C@H]1O
2. NC[C@H]1O[C@H](O[C@H]2[C@H](O)[C@@H](O[C@H]3O[C@H](CO)[C@@H](O)[C@H](N)[C@H]3O)[C@H](N)C[C@@H]2N)[C@H](N)[C@@H](O)[C@@H]1O
Exam item: Sort 1 and 2 by amount of eluted aptamer DNA descending and give the first. Refer to your chosen item by its label in the answer.
Marked response: 2
